System: K. pneumoniae ATCC43816
Assay: Minimum Inhibitory Concentration (MIC) determination, K. pneumoniae ATCC43816
Format: cell-based
Parameters: unit not given here
Settings: LB broth, 5×10^5 CFU/ml, 37° C., 18 hours, scored by eye
Bridge positions count the residues as written; N and C are the ends. Square brackets hold non-standard residues; d marks the D form. Peptide text beside a SMILES is read from it. 1Nal = N[C@@H](Cc1cccc2ccccc12)C(=O)O; His(π-Me) = Cn1cncc1C[C@H](N)C(=O)O; NMeY = CN[C@@H](Cc1ccc(O)cc1)C(=O)O; Nle = CCCC[C@H](N)C(=O)O; Abu = CC[C@H](N)C(=O)O
measure: MIC K. pneumoniae ATCC43816 Wuxi::MIC
Answers are plain numbers.

Would you kindly share the measured MIC K. pneumoniae ATCC43816 Wuxi::MIC for CCCC[C@@H]1NC(=O)CSC[C@@H](C(=O)NCC(N)=O)NC(=O)[C@H](Cc2cncn2C)NC(=O)[C@H](CCCNC(=N)N)NC(=O)[C@H](Cc2c[nH]cn2)NC(=O)[C@H](Cc2ccc(O)cc2)N(C)C(=O)[C@H](CCCNC(=N)N)NC(=O)[C@H](CO)NC(=O)CNC(=O)[C@H](Cc2c[nH]cn2)NC(=O)[C@H](Cc2cccc3ccccc23)NC(=O)[C@H](CC)NC1=O [Compound 20] ({CH2CO}-[Nle][Abu][1Nal]HGSR[NMeY]HR[His(π-Me)]CG-NH2; thioether N-12) ? 25

* * *

System: E. coli BW25113
Test: Minimum Inhibitory Concentration (MIC) determination, E. coli BW25113
Format: cell-based
Set-up: unit not given here
Settings: LB broth, 5×10^5 CFU/ml, 37° C., 18 hours, scored by eye
Bridge positions count the residues as written; N and C are the ends. Square brackets hold non-standard residues; d marks the D form. Peptide text beside a SMILES is read from it. His(π-Me) = Cn1cncc1C[C@H](N)C(=O)O; Aib = CC(C)(N)C(=O)O
measure: MIC E. coli BW25113 WUXI::MIC

Any idea what its MIC E. coli BW25113 WUXI::MIC is? The molecule is CC[C@H](C)[C@@H]1NC(=O)C(C)(C)NC(=O)[C@H](Cc2cncn2C)NC(=O)[C@H](Cc2ccccc2)NC(=O)CSC[C@@H](C(=O)NCC(N)=O)NC(=O)[C@H](Cc2ccc(O)cc2)NC(=O)[C@H](Cc2c[nH]c3ccccc23)NC(=O)[C@H](Cc2ccc(O)cc2)NC(=O)[C@H](CCCNC(=N)N)NC(=O)[C@H](Cc2ccccc2)NC(=O)C(C)(C)NC(=O)[C@H](CCCNC(=N)N)NC(=O)[C@H](CCCCN)NC(=O)[C@H](CCCNC(=N)N)NC1=O [Compound 57] ({CH2CO}-F[His(π-Me)][Aib]IRKR[Aib]FRYWYCG-NH2; thioether N-14) >32

* * *

Test system: K. pneumoniae ATCC43816
Assay: Minimum Inhibitory Concentration (MIC) determination, K. pneumoniae ATCC43816
Assay type: cell-based
Parameters: unit not given here
Conditions: LB broth, 5×10^5 CFU/ml, 37° C., 18 hours, scored by eye
Bridge positions count the residues as written; N and C are the ends. Square brackets hold non-standard residues; d marks the D form. Peptide text beside a SMILES is read from it. 1Nal = N[C@@H](Cc1cccc2ccccc12)C(=O)O; His(π-Me) = Cn1cncc1C[C@H](N)C(=O)O; NMeY = CN[C@@H](Cc1ccc(O)cc1)C(=O)O; NMeR = CN[C@@H](CCCNC(=N)N)C(=O)O; Abu = CC[C@H](N)C(=O)O
measure: MIC K. pneumoniae ATCC43816 Wuxi::MIC
Numbers only.

CC[C@@H]1NC(=O)[C@H](Cc2ccccc2)NC(=O)CSC[C@@H](C(=O)NCC(N)=O)NC(=O)[C@H](Cc2cncn2C)NC(=O)[C@H](CCCNC(=N)N)N(C)C(=O)[C@H](Cc2c[nH]cn2)NC(=O)[C@H](Cc2ccc(O)cc2)N(C)C(=O)[C@H](CCCNC(=N)N)NC(=O)[C@H](CO)NC(=O)CNC(=O)[C@H](Cc2c[nH]cn2)NC(=O)[C@H](Cc2cccc3ccccc23)NC1=O [Compound 34] ({CH2CO}-F[Abu][1Nal]HGSR[NMeY]H[NMeR][His(π-Me)]CG-NH2; thioether N-12); 25

The record that follows has no MIC K. pneumoniae ATCC43816 Wuxi::MIC shown yet.
State the recorded MIC K. pneumoniae ATCC43816 Wuxi::MIC for this entry: CC[C@@H]1NC(=O)[C@H](Cc2ccccc2)NC(=O)CSC[C@@H](C(=O)NCC(N)=O)NC(=O)[C@H](Cc2cncn2C)NC(=O)[C@H](CCCNC(=N)N)NC(=O)[C@H](C)NC(=O)[C@H](Cc2ccc(O)cc2)N(C)C(=O)[C@H](CCCNC(=N)N)NC(=O)[C@H](CO)NC(=O)CNC(=O)[C@H](Cc2c[nH]cn2)NC(=O)[C@H](Cc2cccc3ccccc23)NC1=O [Compound 37] ({CH2CO}-F[Abu][1Nal]HGSR[NMeY]AR[His(π-Me)]CG-NH2; thioether N-12) 100

* * *

System: K. pneumoniae ATCC43816
Test: Minimum Inhibitory Concentration (MIC) determination, K. pneumoniae ATCC43816
Assay type: cell-based
Set-up: unit not given here
Details: LB broth, 5×10^5 CFU/ml, 37° C., 18 hours, scored by eye
Description: MICs were determined by performing two-fold serial dilutions of peptides in LB broth to a final volume of 0.1 ml in round-bottom 96-well assay plates (Corning Life Sciences No 3788). Peptides were initially resuspended in 100% DMSO to 10 mM and subsequently diluted in LB medium to the appropriate concentration. […] Plates were scored by eye, and the lowest compound concentration preventing visible growth was determined to be the MIC.
Bridge positions count the residues as written; N and C are the ends. Square brackets hold non-standard residues; d marks the D form. Peptide text beside a SMILES is read from it. Gly(Nα-CH2CH2CONH2) = NC(=O)CCNCC(=O)O; 1Nal = N[C@@H](Cc1cccc2ccccc12)C(=O)O; His(π-Me) = Cn1cncc1C[C@H](N)C(=O)O; NMeY = CN[C@@H](Cc1ccc(O)cc1)C(=O)O; Gly(N(CH2)3NH2) = NCCCNCC(=O)O; Abu = CC[C@H](N)C(=O)O
measure: MIC K. pneumoniae ATCC43816 Wuxi::MIC

CC[C@@H]1NC(=O)[C@H](Cc2ccccc2)NC(=O)CSC[C@@H](C(=O)NCC(N)=O)NC(=O)[C@H](Cc2cncn2C)NC(=O)[C@H](CCCNC(=N)N)NC(=O)[C@H](Cc2c[nH]cn2)NC(=O)[C@H](Cc2ccc(O)cc2)N(C)C(=O)[C@H](CCCNC(=N)N)NC(=O)[C@H](CO)NC(=O)CN(CCCN)C(=O)[C@H](Cc2c[nH]cn2)NC(=O)[C@H](Cc2cccc3ccccc23)NC1=O [Compound 29] ({CH2CO}-F[Abu][1Nal]H[Gly(N(CH2)3NH2)]SR[NMeY]HR[His(π-Me)]CG-NH2; thioether N-12); 3.1

Items follow; give MIC K. pneumoniae ATCC43816 Wuxi::MIC for each.
1. CC(C)[C@@H]1NC(=O)[C@H](Cc2ccccc2)NC(=O)CSC[C@@H](C(=O)NCC(N)=O)NC(=O)[C@H](Cc2cncn2C)NC(=O)[C@H](CCCNC(=N)N)NC(=O)[C@H](Cc2cnc[nH]2)NC(=O)[C@H](Cc2ccc(O)cc2)N(C)C(=O)[C@H](CCCNC(=N)N)NC(=O)[C@H](CO)NC(=O)CNC(=O)[C@H](Cc2cnc[nH]2)NC(=O)[C@H](Cc2c[nH]c3ccccc23)NC1=O (racemic) [Compound 14]
2. CC[C@H](C)[C@@H]1NC(=O)[C@H]([C@@H](C)O)NC(=O)CNC(=O)[C@H](Cc2ccccc2)NC(=O)CSC[C@@H](C(=O)NCC(N)=O)NC(=O)[C@H](Cc2ccccc2)NC(=O)[C@H](Cc2c[nH]c3ccccc23)NC(=O)[C@H](Cc2ccc(O)cc2)NC(=O)[C@H](CCCNC(=N)N)NC(=O)[C@H](Cc2ccccc2)NC(=O)[C@H](CCCNC(=N)N)NC(=O)[C@H](CCCNC(=N)N)NC(=O)[C@H](CCCCN)NC(=O)[C@H](Cc2cnc[nH]2)NC1=O (racemic) [Compound 50]

1. 25
2. 32

Write down the reported MIC K. pneumoniae ATCC43816 Wuxi::MIC of CC[C@@H]1NC(=O)[C@H](Cc2ccccc2)NC(=O)CSC[C@@H](C(=O)NCC(N)=O)NC(=O)[C@H](Cc2cncn2C)NC(=O)[C@H](CCCNC(=N)N)NC(=O)[C@H](Cc2c[nH]cn2)NC(=O)[C@H](Cc2ccc(O)cc2)N(C)C(=O)[C@H](CCCNC(=N)N)NC(=O)[C@H](CO)NC(=O)CN(CCC(N)=O)C(=O)[C@H](Cc2c[nH]cn2)NC(=O)[C@H](Cc2cccc3ccccc23)NC1=O [Compound 30] ({CH2CO}-F[Abu][1Nal]H[Gly(Nα-CH2CH2CONH2)]SR[NMeY]HR[His(π-Me)]CG-NH2; thioether N-12) , test system: K. pneumoniae ATCC43816. 100
